Taken from ChEMBL document CHEMBL1127572.

tested on: UV4; assay: Tested for the product of drug concentration and exposure time required to reduce UV4 cell survival to 10% under hypoxic condition by clonogenic assay
Measured log10(CT10) values are reported for all entries that follow.
A value of 2 here means CT10 of 100 in µM·h, since values are log10.

[
  {
    "compound": "CCN(CCCl)c1cc(C(=O)NCCN(C)C)c([N+](=O)[O-])cc1[N+](=O)[O-]",
    "result": 2.59
  },
  {
    "compound": "C[N+](C)([O-])CCNC(=O)c1cc(N(CCCl)CCCl)c([N+](=O)[O-])cc1[N+](=O)[O-]",
    "result": 3.65
  },
  {
    "compound": "CN(C)C(=O)c1cc(N(CCCl)CCCl)c([N+](=O)[O-])cc1[N+](=O)[O-]",
    "result": 2.40
  },
  {
    "compound": "NC(=O)c1cc(N(CCCl)CCCl)c([N+](=O)[O-])cc1[N+](=O)[O-]",
    "result": 1.98
  },
  {
    "compound": "NC(=O)c1cc(N(CCI)CCI)c([N+](=O)[O-])cc1[N+](=O)[O-]",
    "result": 0.64
  }
]

Query: Sample CS(=O)(=O)OCCN(CCCl)c1cc(C(N)=O)c([N+](=O)[O-])cc1[N+](=O)[O-] — what was its log10(CT10)?
Reply: 1.68

Query: Endpoint output: log10(CT10) of O=C(NCC(O)CO)c1cc(N(CCCl)CCCl)c([N+](=O)[O-])cc1[N+](=O)[O-] (stereo not drawn) . Value?
Reply: 2.67

Query: Look at this compound and give its reported log10(CT10). O=C(c1cc(N(CCCl)CCCl)c([N+](=O)[O-])cc1[N+](=O)[O-])N1CCOCC1
Reply: 2.10

----------
experiment: Tested for hypersensitivity factor which is the ratio of cytotoxicities against aerobic UV4 cells and chinese hamster ovary fibroblast line AA8
Reported IC50 ratio values follow for various molecules
Write the number on its own, no unit after it.

[
  {
    "chemicalStructure": "C[N+](C)([O-])CCNC(=O)c1cc(N(CCCl)CCCl)c([N+](=O)[O-])cc1[N+](=O)[O-]",
    "result": 1.7
  }
]

Query: Can you share its IC50 ratio? I mean this molecule: O=C(O)c1cc(N(CCCl)CCCl)c([N+](=O)[O-])cc1[N+](=O)[O-]
Reply: 1.4

Query: Fill in: IC50 ratio of O=C(c1cc(N2CC2)c([N+](=O)[O-])cc1[N+](=O)[O-])N1CCOCC1 is ___
Reply: 330

Query: Using the record for NC(=O)c1cc(N(CCBr)CCBr)c([N+](=O)[O-])cc1[N+](=O)[O-] , report its IC50 ratio.
Reply: 7.5

Query: What measured IC50 ratio goes with CS(=O)(=O)NS(=O)(=O)c1cc(N(CCCl)CCCl)c([N+](=O)[O-])cc1[N+](=O)[O-] ?
Reply: 1

Query: Record request: IC50 ratio value, item NS(=O)(=O)c1cc(N(CCCl)CCCl)c([N+](=O)[O-])cc1[N+](=O)[O-]
Reply: 1.5

Query: Could you share which IC50 ratio value was measured for O=C(O)CCNC(=O)c1cc(N(CCCl)CCCl)c([N+](=O)[O-])cc1[N+](=O)[O-] ?
Reply: 1.1
